- Experiment: gradient 5% acetonitrile 3 min, to 50% in 2 min, to 85% in 15 min, held 3 min, 100 µL/min
- Condition summary: column: Zorbax Extend-C18 2.1 x 50 mm; eluents: water / acetonitrile, 0.1% formic acid
Property: RP-LC retention time (s)

In [3]: df
Out[3]:
                                    molecule              property  endpoint_unit  observed_result
 0  COc1ccc(OC)c(NC(=O)c2[nH]c(C)c(S(=O)(=O)N3CCCCC3)c2C)c1  RP-LC retention time              s             1020
 1  O=C(NCc1ccccn1)c1ccc(NC(=O)C2CC2)cc1N1CCCCCC1  RP-LC retention time              s              593
 2  CCc1cc(-c2csc(S(=O)(=O)Nc3ccc(C)c(C)c3)c2)on1  RP-LC retention time              s             1050
 3    CCc1cc(C(=O)NC2CC2)nc2cc(-c3cccs3)nn12  RP-LC retention time              s             1010
 4  Clc1ccc(-c2csc(Cc3nc(-c4ccc5c(c4)OCO5)no3)n2)cc1  RP-LC retention time              s             1200
 5  CC(C)CN1CCn2cc(C(=O)NCc3ccc(F)c(Cl)c3)nc2C1  RP-LC retention time              s              647
 6            Cc1noc(-c2cccn2Cc2cccc(F)c2)n1  RP-LC retention time              s              962
 7        CCSC1=NCCN1C(=O)c1ccc(C(F)(F)F)cc1  RP-LC retention time              s              679
 8      Cc1cccc(NC(=O)c2nc3ccccc3[nH]c2=O)c1  RP-LC retention time              s              771
 9  Cc1ccc(CNC(=O)C2CCN(Cc3cn(C)c4ccc(Cl)cc34)CC2)cc1  RP-LC retention time              s              733
10  Cn1c(=O)c2cc(C(=O)N3CCN(c4ccccc4F)CC3)sc2n(C)c1=O  RP-LC retention time              s              765
11  O=C(Cc1ccccc1)NCc1nc(-c2ccc3oc(-c4ccccc4)nc3c2)no1  RP-LC retention time              s              997
12     CCOC(=O)c1sc(NC(=O)c2cc3ccccc3o2)nc1C  RP-LC retention time              s              974
13  O=C(CN1C(=O)NC2(CCCCC2)C1=O)Nc1ccc(Cl)cc1  RP-LC retention time              s              825
14  O=C(NC1CC1)c1ccccc1OCC1CCCN(Cc2cn[nH]c2-c2cccs2)C1 (stereo not drawn)  RP-LC retention time              s              615
15  Cc1nn(C2CCS(=O)(=O)C2)c2nc(-c3ccc(F)cc3)cc(C(=O)N3CCCC3)c12 (stereo not drawn)  RP-LC retention time              s              779
16  O=C(Nc1ccc2c(c1)CN(C(=O)Cn1c(=O)oc3ccccc31)CCO2)C1CC1  RP-LC retention time              s              767
17  Cc1nn(CCCC(=O)N2CCOCC2)c(=O)c2c(-n3cccc3)n(-c3ccccc3)nc12  RP-LC retention time              s              788
18  CCc1ccccc1NC(=O)Cn1ncc2c(c1=O)N(CC1CC1)C(=O)CS2  RP-LC retention time              s              757
19  COc1ccc(NC(=O)Nc2ccc(C)n(CC(=O)O)c2=O)cc1  RP-LC retention time              s              668
20  CC(C)C(=O)N1CCC2(CC1)NCc1ccccc1-n1ccnc12  RP-LC retention time              s              574
21      Cc1c(NS(C)(=O)=O)cccc1-c1nc2cccnc2s1  RP-LC retention time              s              682
22  CCCCNC(=O)C1CCN(Cc2cc3ccccc3n2Cc2cccc(C)c2)CC1  RP-LC retention time              s              800
23                  CNc1nc(SC)n(C)c(=O)c1N=O  RP-LC retention time              s              667
24  CC(=O)NC(C)C(=O)N1CCC(CCOc2cccnc2)CC1 (stereo not drawn)  RP-LC retention time              s              567
25  CN1C(=O)c2ccccc2Oc2ccc(C(=O)NCCCc3ccccc3)cc21  RP-LC retention time              s              964
26  O=C(Nc1nnc(C2CC(=O)N(c3ccc(F)cc3)C2)o1)c1ccccc1Cl (stereo not drawn)  RP-LC retention time              s              712
27  Nc1nc(CN2CCN(c3ccccn3)CC2)nc(Nc2cccc(Cl)c2)n1  RP-LC retention time              s              788
28  Cc1ccc2nc(-c3ccccc3)c(Nc3ccc4c(c3)OCO4)n2c1  RP-LC retention time              s              717
29           O=C(O)c1cn(-c2ccc(F)c(Cl)c2)nn1  RP-LC retention time              s              727
30  COC1CN(c2cccc(F)c2)C12CCN(C(=O)NC1CCCCC1)CC2 (stereo not drawn)  RP-LC retention time              s             1030
31  Cc1ccc(-c2noc(CN3C(=O)COc4cc(Cl)ccc43)n2)cc1C  RP-LC retention time              s             1200
32  O=C(NC(c1ccccc1)c1nnc(N2CCCCC2)o1)c1ccco1 (stereo not drawn)  RP-LC retention time              s              774
33  CN(C)C(=O)c1ccc2c(c1)N(CC(=O)Nc1ccc3c(c1)OCCO3)C(=O)C1CCCCN21 (stereo not drawn)  RP-LC retention time              s              750
34  CCC1(O)CCC12CCN(C(=O)C1CC1)CC2 (stereo not drawn)  RP-LC retention time              s              678
35  CCc1ccc(NS(=O)(=O)c2cc(-c3c(CC)noc3NC(C)=O)ccc2OC)cc1  RP-LC retention time              s              802
36  CC1CCN(c2cc(-c3noc(C(=O)NC4CCCCCC4)n3)ccn2)CC1  RP-LC retention time              s             1010
37  O=C(NCc1ccc(F)c(Cl)c1)C1CCCN(c2cnc3nccnc3c2)C1 (stereo not drawn)  RP-LC retention time              s              757
